- experimental-target: Caspase-4 (Homo sapiens, UniProt P49662)
- Construct: mixing the compounds with the respective active caspases; purchased BioVision K154-100
- Sequence (P49662 81-270 limits assumed): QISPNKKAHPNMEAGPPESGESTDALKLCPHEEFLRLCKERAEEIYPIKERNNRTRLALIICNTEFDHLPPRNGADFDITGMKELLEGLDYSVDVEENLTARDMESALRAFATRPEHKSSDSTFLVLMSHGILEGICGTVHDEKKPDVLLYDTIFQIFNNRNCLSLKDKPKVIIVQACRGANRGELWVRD
- Sequence (P49662 290-377 limits assumed): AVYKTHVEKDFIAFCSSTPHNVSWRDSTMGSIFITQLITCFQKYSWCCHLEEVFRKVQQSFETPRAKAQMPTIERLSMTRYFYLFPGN
- procedure-summary: Caspase-4 inhibitor screening assay (BioVision kit, LEVD-AFC)
- Type: biochemical
- experimental-conditions: read-out: % Inhibition at 10 uM Casp4
The following compounds are listed with their measured inhibition at 10 µM values.

compound: CC(C)[C@H](NC(=O)[C@@H](N)Cc1ccc(O)cc1)C(=O)N[C@@H](C)C(=O)N[C@H](/C=C/S(C)(=O)=O)CC(=O)O
inhibition at 10 µM [%]: 28
//
compound: CC(C)(C)[C@H](NC(=O)c1ccc2ccccc2n1)C(=O)N1CCC[C@@H]1C(=O)N[C@H](/C=C/S(C)(=O)=O)CC(=O)O
inhibition at 10 µM [%]: 99
//
compound: CCOC(=O)/C=C/[C@H](CC(=O)O)NC(=O)[C@@H](NC(=O)[C@@H](NC(=O)[C@H](CC(=O)O)NC(=O)OCc1ccccc1)c1ccccc1)C(C)C
inhibition at 10 µM [%]: 100
//
compound: CC(C)(C)[C@H](NC(=O)c1ccc2ccccc2n1)C(=O)N1CC[C@@H]1C(=O)N[C@H](/C=C/S(C)(=O)=O)CC(=O)O
inhibition at 10 µM [%]: 85
//
compound: CC(C)(C)[C@H](NC(=O)[C@H](CC(=O)O)NC(=O)OCc1ccccc1)C(=O)N1CCCC1C(=O)N[C@H](/C=C/S(C)(=O)=O)CC(=O)O (stereo in doubt)
inhibition at 10 µM [%]: 88
//
compound: CC(C)(C)[C@H](NC(=O)c1ccc(N)c(Cl)c1)C(=O)N1CCCC1C(=O)N[C@H](/C=C/S(C)(=O)=O)CC(=O)O (stereo in doubt)
inhibition at 10 µM [%]: 100
//
compound: CC(C)[C@H](NC(=O)c1ccc2ccccc2n1)C(=O)N[C@H](/C=C/S(C)(=O)=O)CC(=O)O
inhibition at 10 µM [%]: 0

---

- experimental-target: Caspase-3 (Homo sapiens, UniProt P42574)
- Construct: mixing the compounds with the respective active caspases; purchased BioVision K153-100
- Sequence (P42574 29-175 limits assumed): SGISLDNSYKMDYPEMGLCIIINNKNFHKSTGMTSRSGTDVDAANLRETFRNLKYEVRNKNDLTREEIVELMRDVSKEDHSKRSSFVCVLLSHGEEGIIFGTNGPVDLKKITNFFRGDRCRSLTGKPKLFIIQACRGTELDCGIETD
- Sequence (P42574 176-277 limits assumed): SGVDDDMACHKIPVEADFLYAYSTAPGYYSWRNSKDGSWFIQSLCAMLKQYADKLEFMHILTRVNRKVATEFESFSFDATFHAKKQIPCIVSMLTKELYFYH
- procedure-summary: Caspase-3 inhibitor screening assay (BioVision kit, DEVD-AFC)
- Assay type: biochemical
- experimental-conditions: read-out: % Inhibition at 10 uM Casp3
measured-metric: inhibition at 10 µM

smiles-record: CC(C)(C)[C@H](NC(=O)c1ccc2ccccc2n1)C(=O)N1CC[C@@H]1C(=O)N[C@H](/C=C/S(C)(=O)=O)CC(=O)O
experimental-target: Caspase-3 (Homo sapiens, UniProt P42574)
result: 1%
//
smiles-record: CC(C)[C@H](NC(=O)c1ccc2ccccc2n1)C(=O)N[C@H](/C=C/S(C)(=O)=O)CC(=O)O
experimental-target: Caspase-3 (Homo sapiens, UniProt P42574)
result: 5%
//
smiles-record: CC(C)[C@H](NC(=O)[C@H](Cc1cn(C)c2ccccc12)NC(=O)[C@H](CC(=O)O)NC(=O)OCc1ccccc1)C(=O)N[C@H](/C=C/S(C)(=O)=O)CC(=O)O
experimental-target: Caspase-3 (Homo sapiens, UniProt P42574)
result: 98%

---

- experimental-target: Caspase-2 (Homo sapiens, UniProt P42575)
- Construct: mixing the compounds with the respective active caspases; purchased BioVision K152-100
- Sequence (P42575 170-325 limits assumed): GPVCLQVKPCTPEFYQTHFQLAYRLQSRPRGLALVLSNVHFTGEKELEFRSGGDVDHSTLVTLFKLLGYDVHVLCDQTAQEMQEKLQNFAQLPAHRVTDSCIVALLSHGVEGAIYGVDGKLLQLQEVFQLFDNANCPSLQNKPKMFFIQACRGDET
- Sequence (P42575 334-452 limits assumed): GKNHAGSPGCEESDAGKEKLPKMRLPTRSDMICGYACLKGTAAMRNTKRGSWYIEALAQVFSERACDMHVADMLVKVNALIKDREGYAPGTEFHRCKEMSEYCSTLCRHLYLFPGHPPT
- procedure-summary: Caspase-2 inhibitor screening assay (BioVision kit, VDVAD-AFC)
- Assay type: biochemical
- experimental-conditions: read-out: % Inhibition at 10 uM Casp2
Where a name gives a salt, the structure may show the parent alone.
measured-metric: inhibition at 10 µM (%)

molecule: CCOC(=O)/C=C/[C@H](CC(=O)O)NC(=O)[C@@H](NC(=O)[C@@H](NC(=O)[C@H](CC(=O)O)NC(=O)OCc1ccccc1)c1ccccc1)C(C)C
experimental-target: Caspase-2 (Homo sapiens, UniProt P42575)
quantitative-result: 0

molecule: CC(C)(C)[C@@H](NC(=O)[C@H](CC(=O)O)NC(=O)OCc1ccccc1)C(=O)N1CC[C@@H]1C(=O)N[C@H](/C=C/S(C)(=O)=O)CC(=O)O
experimental-target: Caspase-2 (Homo sapiens, UniProt P42575)
quantitative-result: 43

molecule: CC(C)(C)[C@H](NC(=O)c1ccc2ccccc2n1)C(=O)N1CCC[C@@H]1C(=O)N[C@H](/C=C/S(C)(=O)=O)CC(=O)O
experimental-target: Caspase-2 (Homo sapiens, UniProt P42575)
quantitative-result: 2

molecule: CS(=O)(=O)/C=C/[C@H](CC(=O)O)NC(=O)[C@H](CCC(=O)O)NC(=O)c1ccc2ccccc2n1
experimental-target: Caspase-2 (Homo sapiens, UniProt P42575)
quantitative-result: 0

molecule: CC(C)(C)[C@H](NC(=O)c1ccc(N)c(Cl)c1)C(=O)N1CCCC1C(=O)N[C@H](/C=C/S(C)(=O)=O)CC(=O)O (stereo in doubt)
experimental-target: Caspase-2 (Homo sapiens, UniProt P42575)
quantitative-result: 1

molecule: CC(C)(C)[C@H](NC(=O)c1ccc2ncccc2c1)C(=O)N1CCCC1C(=O)N[C@H](/C=C/S(C)(=O)=O)CC(=O)O (stereo in doubt)
experimental-target: Caspase-2 (Homo sapiens, UniProt P42575)
quantitative-result: 3

molecule: CCOC(=O)/C=C/[C@H](CC(=O)O)NC(=O)[C@H]1CCCN1C(=O)[C@@H](NC(=O)c1ccc2ccccc2n1)C(C)(C)C
experimental-target: Caspase-2 (Homo sapiens, UniProt P42575)
quantitative-result: 4

molecule: CC(C)(C)[C@H](NC(=O)c1ccc2ccccc2n1)C(=O)N1CC[C@@H]1C(=O)N[C@H](/C=C/S(C)(=O)=O)CC(=O)O
experimental-target: Caspase-2 (Homo sapiens, UniProt P42575)
quantitative-result: 7

molecule: CS(=O)(=O)/C=C/[C@H](CC(=O)O)NC(=O)[C@H]1CCC(=O)N1
experimental-target: Caspase-2 (Homo sapiens, UniProt P42575)
quantitative-result: 0

molecule: CC(C)[C@H](NC(=O)[C@H](CCC(=O)O)NC(=O)[C@H](Cc1c[nH]c2ccccc12)NC(=O)OCc1ccccc1)C(=O)N[C@H](/C=C/S(C)(=O)=O)CC(=O)O
experimental-target: Caspase-2 (Homo sapiens, UniProt P42575)
quantitative-result: 1

molecule: CS(=O)(=O)/C=C/[C@H](CC(=O)O)NC(=O)[C@@H](N)CCC(=O)O
experimental-target: Caspase-2 (Homo sapiens, UniProt P42575)
quantitative-result: 12

molecule: CC(C)[C@H](NC(=O)OCc1ccccc1)C(=O)N[C@H](/C=C/S(C)(=O)=O)CC(=O)O
experimental-target: Caspase-2 (Homo sapiens, UniProt P42575)
quantitative-result: 0

molecule: CS(=O)(=O)/C(Cl)=C/[C@@H](N)CC(=O)O
experimental-target: Caspase-2 (Homo sapiens, UniProt P42575)
quantitative-result: 0

molecule: CC(C)[C@H](NC(=O)[C@@H](N)Cc1ccc(O)cc1)C(=O)N[C@@H](C)C(=O)N[C@H](/C=C/S(C)(=O)=O)CC(=O)O
experimental-target: Caspase-2 (Homo sapiens, UniProt P42575)
quantitative-result: 0

molecule: CC(C)[C@H](NC(=O)[C@H](Cc1cn(C)c2ccccc12)NC(=O)[C@H](CC(=O)O)NC(=O)OCc1ccccc1)C(=O)N[C@H](/C=C/S(C)(=O)=O)CC(=O)O
experimental-target: Caspase-2 (Homo sapiens, UniProt P42575)
quantitative-result: 0

molecule: CS(=O)(=O)/C=C/[C@H](CC(=O)O)NC(=O)C1CCCN1C(=O)[C@@H](NC(=O)[C@H](CC(=O)O)NC(=O)OCc1ccccc1)C1CC1 (stereo in doubt)
experimental-target: Caspase-2 (Homo sapiens, UniProt P42575)
quantitative-result: 22

molecule: CCC(C)[C@H](NC(=O)[C@H](CCC(=O)O)NC(=O)[C@@H](NC(=O)OCc1ccccc1)C(C)C)C(=O)N[C@H](/C=C/S(C)(=O)=O)CC(=O)O (stereo partly shown)
experimental-target: Caspase-2 (Homo sapiens, UniProt P42575)
quantitative-result: 2

molecule: CS(=O)(=O)/C=C/[C@H](CC(=O)O)NC(=O)[C@H]1CCCN1C(=O)[C@@H](NC(=O)[C@H](CC(=O)O)NC(=O)OCc1ccccc1)c1ccccc1
experimental-target: Caspase-2 (Homo sapiens, UniProt P42575)
quantitative-result: 11

molecule: CCOC(=O)/C=C/[C@@H](N)CC(=O)O [Compound 44, Asp ethyl vinyl ester tosyl salt]
experimental-target: Caspase-2 (Homo sapiens, UniProt P42575)
quantitative-result: 0

molecule: CC(C)(C)OC(=O)CC[C@H](NC(=O)OC(C)(C)C)C(=O)N[C@H](/C=C/S(C)(=O)=O)CC(=O)OC(C)(C)C
experimental-target: Caspase-2 (Homo sapiens, UniProt P42575)
quantitative-result: 14

molecule: CC(C)[C@H](NC(=O)c1ccc2ccccc2n1)C(=O)N[C@H](/C=C/S(C)(=O)=O)CC(=O)O
experimental-target: Caspase-2 (Homo sapiens, UniProt P42575)
quantitative-result: 1

molecule: CC(C)(C)[C@H](NC(=O)[C@H](CC(=O)O)NC(=O)OCc1ccccc1)C(=O)N1CCCC1C(=O)N[C@H](/C=C/S(C)(=O)=O)CC(=O)O (stereo in doubt)
experimental-target: Caspase-2 (Homo sapiens, UniProt P42575)
quantitative-result: 70

molecule: CC(C)[C@H](NC(=O)OCc1ccccc1)C(=O)N[C@H](/C=C(\Cl)S(C)(=O)=O)CC(=O)O
experimental-target: Caspase-2 (Homo sapiens, UniProt P42575)
quantitative-result: 0

molecule: CC(C)[C@H](NC(=O)[C@@H](NC(=O)[C@H](CC(=O)O)NC(=O)OCc1ccccc1)c1ccccc1)C(=O)N[C@H](/C=C/S(C)(=O)=O)CCC(=O)O
experimental-target: Caspase-2 (Homo sapiens, UniProt P42575)
quantitative-result: 0

molecule: CC(C)(C)[C@H](NC(=O)c1ccc2ncccc2n1)C(=O)N1CCCC1C(=O)N[C@H](/C=C/S(C)(=O)=O)CC(=O)O (stereo in doubt)
experimental-target: Caspase-2 (Homo sapiens, UniProt P42575)
quantitative-result: 3
